Target: T1, PUF4 RNA-binding domain (Saccharomyces cerevisiae, UniProt P25339 537-888)
T1 sequence: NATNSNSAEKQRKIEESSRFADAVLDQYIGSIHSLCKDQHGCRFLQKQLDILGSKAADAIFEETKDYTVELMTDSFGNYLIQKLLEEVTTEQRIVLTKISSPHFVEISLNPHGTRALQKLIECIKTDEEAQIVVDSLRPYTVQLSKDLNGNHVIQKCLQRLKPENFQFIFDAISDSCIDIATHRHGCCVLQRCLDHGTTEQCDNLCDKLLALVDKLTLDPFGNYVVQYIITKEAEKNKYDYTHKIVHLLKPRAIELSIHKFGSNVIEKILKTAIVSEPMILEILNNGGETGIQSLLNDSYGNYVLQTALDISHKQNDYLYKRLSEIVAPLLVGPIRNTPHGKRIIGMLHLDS
Test: Mg; RNA-MaP; 20 mM Na-HEPES pH 7.4, 30 mM KOAc, 0.75 mM MgCl2, 0.1% Tween-20, 5% glycerol, 0.1 mg/mL BSA, 2 mM DTT; 25 C; 0.0125-409.6 nM protein
Conditions: tags: N-His6-TEV cleaved; C-SNAP kept, Cy3B-labelled; label: tethered on chip by stalled RNA polymerase
pKd: −log10 of the molar value.
# pKd listing for each entry below

# binder, censorSymbol, pKd
rows = [
    ("Ic_S2_P4E.1_K4.1_C4.1_H4.1_A4.1_[T5G]_[A6T]_[T7A]_F4.1_[T8A]_T4.1 (ssRNA) RNA: UUUGAUUAAUAUGAUAUCGUUCUUUCUUGUAGUAAAUUCUUUCUCGAUAUCAUAUUAAUCUUU", "=", 6.39),
    ("UCUCUUUCUAUAUUAUUACCUCUCUU (ssRNA) [Id_ii_S1_P5E.3_K5.2_C5.2_[C-2T]_[T-1C]_H5.2_A5.1_F5.1_T5.2_[T11C]_[A12C]]", "=", 6.41),
    ("Ic_S4_P5E.1_K5.1_C5.1_H5.1_A5.1_[A7G]_F5.1_[T8G]_T5.1 (ssRNA) RNA: UUUGACAACUGAUCGUUCUUUCUUGUAUUGGUAUUCUUUCUCGAUCAGUUGUCUUU", "=", 7.23),
    ("Id_ii_S2_P5E.4_K5.3_C5.2_[C-2A]_[T-1A]_H5.3_A5.1_F5.1_T5.2_[T11A] (ssRNA) RNA: UUUGAUUAAUAUGAUAUCGUUCUUUCUAAACACUUAUUAAAUUCUUUCUCGAUAUCAUAUUAAUCUUU", "<", 5.64),
    ("Ic_S2_P5E.1_K5.1_C5.1_H5.1_A5.1_[T5C]_[T6A]_[A7T]_F5.1_[T8C]_[T9G]_[A10G]_T5.1 (ssRNA) RNA: UUUGAUUAAUAUGAUAUCGUUCUUUCUUGUACAUCGGUUCUUUCUCGAUAUCAUAUUAAUCUUU", "=", 6.50),
]
